Molecular target: κOP (Homo sapiens, UniProt P41145)
Sequence (P41145 whole entry): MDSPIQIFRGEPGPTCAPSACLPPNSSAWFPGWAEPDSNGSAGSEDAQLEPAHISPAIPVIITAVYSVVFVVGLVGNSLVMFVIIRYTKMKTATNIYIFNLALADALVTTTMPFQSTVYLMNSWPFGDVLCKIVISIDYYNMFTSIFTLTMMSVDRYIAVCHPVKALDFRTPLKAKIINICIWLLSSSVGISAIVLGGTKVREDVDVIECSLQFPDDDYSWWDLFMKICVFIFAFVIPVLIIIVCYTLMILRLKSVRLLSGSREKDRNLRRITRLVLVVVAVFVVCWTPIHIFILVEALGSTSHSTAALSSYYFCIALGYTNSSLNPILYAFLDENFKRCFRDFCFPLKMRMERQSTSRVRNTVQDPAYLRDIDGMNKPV
Format: binding
Design: membranes isolated
test_readout: Binding pKi

CC[C@H]1CN2CC[C@@]3(O)C(=Nc4cccc(OC)c43)[C@@H]2C[C@@H]1/C(=C\OC)C(=O)OC [7OH SPG, 7-hydroxyspeciogynine] ... 5.8 ± 0.2 (3)
C=CC1CN2CCC3(Nc4cccc(OC)c4C3=O)C2CC1C(=COC)C(=O)OC (centres unmarked) ... 5.9 ± 0.1 (4)
C=C[C@H]1CN2CCc3c([nH]c4cccc(OC)c34)[C@@H]2C[C@@H]1/C(=C\OC)C(=O)OC [PAYN, paynantheine, reference compound] ... 5.5 ± 0.1 (5)
C=C[C@H]1CN2CC[C@@]3(O)C(=Nc4cccc(OC)c43)[C@@H]2C[C@@H]1/C(=C\OC)C(=O)OC [70H PAYN, 7-Hydroxypaynantheine] ... 5.1 ± 0.1 (3)
CC[C@@H]1CN2CCc3c([nH]c4cccc(OC)c34)[C@H]2C[C@@H]1/C(=C\OC)C(=O)OC ... 6.2 ± 0.1 (4)
CC[C@H]1CN2CC[C@]3(Nc4cccc(OC)c4C3=O)[C@@H]2C[C@@H]1/C(=C\OC)C(=O)OC ... 6.1 ± 0.1 (3)
CC[C@@H]1CN2CC[C@@]3(O)C(=Nc4cccc(OC)c43)[C@@H]2C[C@@H]1/C(=C\OC)C(=O)OC [7-OH MITRA, 7-hydroxymitragynine, reference compound] ... 6.9 ± 0.1 (4)

Next compound, please.
Please give the measured Binding pKi for this compound: CC[C@H]1CN2CCc3c([nH]c4cccc(OC)c34)[C@@H]2C[C@@H]1/C(=C\OC)C(=O)OC [SPG, speciogynine, reference compound]
5.4 ± 0.1 (5)

====

Target: FLAG-mouse δOP (Mus musculus)
Construct: FLAG (N); expressed in transfected cells; host or cells: HEK cells (HEK-293), transient transfection together with pGloSensor22F
Sequence (P32300 whole entry): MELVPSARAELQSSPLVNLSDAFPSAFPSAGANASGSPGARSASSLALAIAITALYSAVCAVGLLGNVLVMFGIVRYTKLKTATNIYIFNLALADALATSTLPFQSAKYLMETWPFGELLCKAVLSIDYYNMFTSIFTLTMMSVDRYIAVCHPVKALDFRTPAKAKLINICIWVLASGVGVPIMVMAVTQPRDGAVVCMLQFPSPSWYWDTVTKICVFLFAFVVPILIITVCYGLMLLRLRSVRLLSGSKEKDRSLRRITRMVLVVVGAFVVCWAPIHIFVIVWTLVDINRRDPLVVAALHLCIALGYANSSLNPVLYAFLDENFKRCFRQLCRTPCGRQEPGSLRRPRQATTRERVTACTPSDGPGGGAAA
Experiment: GloSensor cAMP inhibition assay in transfected HEK cells
Type: cell-based
Settings: efficacy normalized to positive control Leu-Enk
test_readout: cAMP α

Reference set, count: 3
CC[C@H]1CN2CC[C@]3(Nc4cccc(OC)c4C3=O)[C@@H]2C[C@@H]1/C(=C\OC)C(=O)OC ... 80 ± 20
C=C[C@H]1CN2CCc3c([nH]c4cccc(OC)c34)[C@@H]2C[C@@H]1/C(=C\OC)C(=O)OC [PAYN, paynantheine, reference compound] ... 64 ± 13
CC[C@H]1CN2CC[C@@]3(O)C(=Nc4cccc(OC)c43)[C@@H]2C[C@@H]1/C(=C\OC)C(=O)OC [7OH SPG, 7-hydroxyspeciogynine] ... 76 ± 6

Please give the measured cAMP α for this molecule: CC[C@@H]1CN2CC[C@@]3(O)C(=Nc4cccc(OC)c43)[C@@H]2C[C@@H]1/C(=C\OC)C(=O)OC [7-OH MITRA, 7-hydroxymitragynine, reference compound]
80 ± 8

Please give the measured cAMP α for this molecule: C=C[C@H]1CN2CC[C@@]3(O)C(=Nc4cccc(OC)c43)[C@@H]2C[C@@H]1/C(=C\OC)C(=O)OC [70H PAYN, 7-Hydroxypaynantheine]
70 ± 20

====

Target: FLAG-mouse δOP (Mus musculus)
Construct: FLAG (N); expressed in transfected cells; host or cells: HEK cells (HEK-293), transient transfection together with pGloSensor22F
Experiment: GloSensor cAMP inhibition assay in transfected HEK cells
Assay type: cell-based
Conditions: inhibition of forskolin-induced cAMP
test_readout: cAMP pIC50

Reference set, count: 2
C=C[C@H]1CN2CC[C@@]3(O)C(=Nc4cccc(OC)c43)[C@@H]2C[C@@H]1/C(=C\OC)C(=O)OC [70H PAYN, 7-Hydroxypaynantheine] ... 5.2 ± 0.3 (5)
CC[C@H]1CN2CC[C@]3(Nc4cccc(OC)c4C3=O)[C@@H]2C[C@@H]1/C(=C\OC)C(=O)OC [SPG PI, Speciogynine Pseudoindoxyl] ... 5.1 ± 0.3 (4)

Please give the measured cAMP pIC50 for this compound: CC[C@H]1CN2CC[C@@]3(O)C(=Nc4cccc(OC)c43)[C@@H]2C[C@@H]1/C(=C\OC)C(=O)OC [7OH SPG, 7-hydroxyspeciogynine]
5.6 ± 0.1 (6)

====

Target: μOP (Homo sapiens, UniProt P35372)
Sequence (P35372 whole entry): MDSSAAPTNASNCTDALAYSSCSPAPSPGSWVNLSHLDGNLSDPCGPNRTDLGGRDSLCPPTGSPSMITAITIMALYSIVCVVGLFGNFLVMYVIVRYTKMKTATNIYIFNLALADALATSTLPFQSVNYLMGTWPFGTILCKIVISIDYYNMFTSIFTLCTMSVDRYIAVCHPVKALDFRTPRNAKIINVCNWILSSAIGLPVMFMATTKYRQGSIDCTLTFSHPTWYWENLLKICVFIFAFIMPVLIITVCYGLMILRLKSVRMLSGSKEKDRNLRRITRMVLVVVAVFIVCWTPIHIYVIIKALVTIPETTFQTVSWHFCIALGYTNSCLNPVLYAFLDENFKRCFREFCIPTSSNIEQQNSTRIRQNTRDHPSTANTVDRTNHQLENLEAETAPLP
Conditions: [3H]DAMGO, CHO membranes, read-out: Binding Ki
Reported Ki values are given for each entry in this list.
The figure you give is taken to be in nM; do not add the unit.

Please give the measured Ki for this compound: CC[C@H]1CN2CC[C@]3(Nc4cccc(OC)c4C3=O)[C@@H]2C[C@@H]1/C(=C\OC)C(=O)OC [SPG PI, Speciogynine Pseudoindoxyl]
77

Please give the measured Ki for this compound: C=C[C@H]1CN2CC[C@@]3(O)C(=Nc4cccc(OC)c43)[C@@H]2C[C@@H]1/C(=C\OC)C(=O)OC [70H PAYN, 7-Hydroxypaynantheine]
6150

Please give the measured Ki for this compound: C=C[C@H]1CN2CCc3c([nH]c4cccc(OC)c34)[C@@H]2C[C@@H]1/C(=C\OC)C(=O)OC [PAYN, paynantheine, reference compound]
52

Please give the measured Ki for this compound: C=CC1CN2CCC3(Nc4cccc(OC)c4C3=O)C2CC1C(=COC)C(=O)OC (stereo not shown) [PAYN PI, Paynantheine Pseudoindoxyl]
680

====

Biological target: HA-mouse μOP (Mus musculus, UniProt P42866)
Construct: HA (N)
Sequence (P42866 whole entry): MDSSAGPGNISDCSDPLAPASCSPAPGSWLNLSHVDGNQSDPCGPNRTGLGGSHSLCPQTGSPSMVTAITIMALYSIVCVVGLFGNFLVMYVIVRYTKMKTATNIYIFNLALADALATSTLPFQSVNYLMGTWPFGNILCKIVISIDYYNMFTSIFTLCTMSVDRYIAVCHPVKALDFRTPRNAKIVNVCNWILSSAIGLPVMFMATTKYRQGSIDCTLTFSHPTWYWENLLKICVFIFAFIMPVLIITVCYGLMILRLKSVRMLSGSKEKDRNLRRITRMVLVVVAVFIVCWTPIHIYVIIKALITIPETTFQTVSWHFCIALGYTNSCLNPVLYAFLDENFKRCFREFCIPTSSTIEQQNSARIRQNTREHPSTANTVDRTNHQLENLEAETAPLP
Experiment: GloSensor cAMP inhibition assay in transfected HEK cells
Settings: inhibition of forskolin-induced cAMP
pIC50: −log10 of the molar value.
Short version: pIC50 at least 6 is Fulfilled, less is Not fulfilled.

C=C[C@H]1CN2CCc3c([nH]c4cccc(OC)c34)[C@@H]2C[C@@H]1/C(=C\OC)C(=O)OC [PAYN, paynantheine, reference compound] ... Not fulfilled

Test whether the compound `CC[C@H]1CN2CC[C@]3(Nc4cccc(OC)c4C3=O)[C@@H]2C[C@@H]1/C(=C\OC)C(=O)OC` records pIC50 of 6 or higher.
Fulfilled

Test whether the compound CC[C@@H]1CN2CC[C@@]3(O)C(=Nc4cccc(OC)c43)[C@@H]2C[C@@H]1/C(=C\OC)C(=O)OC [7-OH MITRA, 7-hydroxymitragynine, reference compound] records pIC50 of 6 or higher.
Fulfilled

Test whether the compound C=C[C@H]1CN2CC[C@@]3(O)C(=Nc4cccc(OC)c43)[C@@H]2C[C@@H]1/C(=C\OC)C(=O)OC [70H PAYN, 7-Hydroxypaynantheine] records pIC50 of 6 or higher.
Not fulfilled

Test whether the compound C=CC1CN2CCC3(Nc4cccc(OC)c4C3=O)C2CC1C(=COC)C(=O)OC (stereo not drawn) records pIC50 of 6 or higher.
Not fulfilled

Test whether the compound CC[C@H]1CN2CC[C@@]3(O)C(=Nc4cccc(OC)c43)[C@@H]2C[C@@H]1/C(=C\OC)C(=O)OC [7OH SPG, 7-hydroxyspeciogynine] records pIC50 of 6 or higher.
Not fulfilled

====

Target: δOP (Homo sapiens, UniProt P41143)
Sequence (P41143 whole entry): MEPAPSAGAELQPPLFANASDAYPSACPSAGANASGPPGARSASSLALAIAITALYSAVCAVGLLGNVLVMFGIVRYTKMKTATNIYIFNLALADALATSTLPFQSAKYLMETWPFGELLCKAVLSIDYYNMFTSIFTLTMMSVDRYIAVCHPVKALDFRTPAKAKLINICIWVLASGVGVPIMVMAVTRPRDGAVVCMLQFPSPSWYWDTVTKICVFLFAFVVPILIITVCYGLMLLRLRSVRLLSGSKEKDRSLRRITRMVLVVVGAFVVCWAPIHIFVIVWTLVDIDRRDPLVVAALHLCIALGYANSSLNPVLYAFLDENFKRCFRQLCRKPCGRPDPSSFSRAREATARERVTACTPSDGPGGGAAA
Details: [3H]DPDPE, CHO membranes, read-out: Binding Ki
pKi: −log10 of the molar value.
Short version: pKi at least 6 is label 1, less is label 0.

Some solved cases for reference:
CC[C@@H]1CN2CCc3c([nH]c4cccc(OC)c34)[C@H]2C[C@@H]1/C(=C\OC)C(=O)OC [SPECIO, speciociliatine] ... label 0
C=C[C@H]1CN2CC[C@@]3(O)C(=Nc4cccc(OC)c43)[C@@H]2C[C@@H]1/C(=C\OC)C(=O)OC [70H PAYN, 7-Hydroxypaynantheine] ... label 0
CC[C@@H]1CN2CC[C@@]3(O)C(=Nc4cccc(OC)c43)[C@@H]2C[C@@H]1/C(=C\OC)C(=O)OC [7-OH MITRA, 7-hydroxymitragynine, reference compound] ... label 1

Test whether the molecule CC[C@H]1CN2CCc3c([nH]c4cccc(OC)c34)[C@@H]2C[C@@H]1/C(=C\OC)C(=O)OC [SPG, speciogynine, reference compound] records pKi of 6 or higher.
label 0

Test whether the molecule CC[C@H]1CN2CC[C@@]3(O)C(=Nc4cccc(OC)c43)[C@@H]2C[C@@H]1/C(=C\OC)C(=O)OC [7OH SPG, 7-hydroxyspeciogynine] records pKi of 6 or higher.
label 1

Test whether the molecule C=C[C@H]1CN2CCc3c([nH]c4cccc(OC)c34)[C@@H]2C[C@@H]1/C(=C\OC)C(=O)OC [PAYN, paynantheine, reference compound] records pKi of 6 or higher.
label 0

====

Molecular target: FLAG-mouse δOP (Mus musculus)
Construct: FLAG (N)
Test: GloSensor cAMP inhibition assay in transfected HEK cells
Settings: inhibition of forskolin-induced cAMP
test_readout: pIC50
Field pIC50 (float): negative decimal logarithm of the concentration in molar.

Reference set, count: 4
CC[C@@H]1CN2CC[C@@]3(O)C(=Nc4cccc(OC)c43)[C@@H]2C[C@@H]1/C(=C\OC)C(=O)OC [7-OH MITRA, 7-hydroxymitragynine, reference compound] ... 6.02
C=C[C@H]1CN2CC[C@@]3(O)C(=Nc4cccc(OC)c43)[C@@H]2C[C@@H]1/C(=C\OC)C(=O)OC [70H PAYN, 7-Hydroxypaynantheine] ... 5.24
CC[C@H]1CN2CC[C@@]3(O)C(=Nc4cccc(OC)c43)[C@@H]2C[C@@H]1/C(=C\OC)C(=O)OC [7OH SPG, 7-hydroxyspeciogynine] ... 5.64
C=C[C@H]1CN2CCc3c([nH]c4cccc(OC)c34)[C@@H]2C[C@@H]1/C(=C\OC)C(=O)OC [PAYN, paynantheine, reference compound] ... 5.45

Next compound, please.
Please give the measured pIC50 for this compound: `CC[C@H]1CN2CC[C@]3(Nc4cccc(OC)c4C3=O)[C@@H]2C[C@@H]1/C(=C\OC)C(=O)OC`
5.07
